Recorded abundance fitness values for a group of variants are listed next.
B1: Retinoic acid receptor beta, residues 85 to 161; numbered along this chain, P10826 (parent)
chain: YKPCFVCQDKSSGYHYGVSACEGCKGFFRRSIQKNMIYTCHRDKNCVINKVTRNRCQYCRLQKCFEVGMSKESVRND

Variants of: B1
TEST METHOD NOTES: abundance fitness (aPCA) (normalised: wild type 0, dead -1); higher = more abundant; growth selection in yeast, the domain comes from the species named
CONDITIONS: Homo sapiens

ORDERED RESIDUES | abundance fitness
YKPCFVCQDKSSGYHYGVSACEFCKGFFRRSIQKNMIYTCHRDKNCVINKVTRNRCQYCRLQKCFEVGMSKESVRND [G23F] | -0.304
YKPCFVCQDFSSGYHYGVSACEGCKGFFRRSIQKNMIYTCHRDKNCVINKVTRNRCQYCRLQKCFEVGMSKESVRND [K10F] | 0.026
YKPCFVCQDKSSGYHYGVSACEGCKGFFRRSIQKNMIYTCHRDKNCVINKVTRNRCQYQRLQKCFEVGMSKESVRND [C59Q] | -0.983
YKPFFVCQDKSSGYHYGVSACEGCKGFFRRSIQKNMIYTCHRDKNCVINKVTRNRCQYCRLQKCFEVGMSKESVRND [C4F] | -0.687
YKPCFVCQDKSSGYHYGVSAYEGCKGFFRRSIQKNMIYTCHRDKNCVINKVTRNRCQYCRLQKCFEVGMSKESVRND [C21Y] | -0.885
YKPCFVCQDKSSGYHYGVSACEGCKGFFRRSIQKNMIYTCHRDKNCVINKVTRNECQYCRLQKCFEVGMSKESVRND [R55E] | 0.277
YKPCFVCQDKSSGYHYGVSACEGCKYFFRRSIQKNMIYTCHRDKNCVINKVTRNRCQYCRLQKCFEVGMSKESVRND [G26Y] | -0.467
YKPCFVCQDKSSGYHYGVSACEGCKGFFRRSIQKNMIYTCHRDKNCVSNKVTRNRCQYCRLQKCFEVGMSKESVRND [I48S] | -0.48
YKPCFVCQDKSSGYHYWVSACEGCKGFFRRSIQKNMIYTCHRDKNCVINKVTRNRCQYCRLQKCFEVGMSKESVRND [G17W] | -0.603
YKPCFVCQDKSSGYHYGVSACEGCKGFFRRSIQKNMIYTCHRDKLCVINKVTRNRCQYCRLQKCFEVGMSKESVRND [N45L] | 0.02
YKPCFVCQDKSSGYHYGVSACEGCKGFFRRSIQKNMIYTCHRDKNCVINKVTRNRCQYTRLQKCFEVGMSKESVRND [C59T] | -0.499
YKPCFVCQDKSSGYHYGVSACEMCKGFFRRSIQKNMIYTCHRDKNCVINKVTRNRCQYCRLQKCFEVGMSKESVRND [G23M] | -0.227
YKPCFVCQDKSSGYHYGVSACEGCKGFFRRSIQKNMIYPCHRDKNCVINKVTRNRCQYCRLQKCFEVGMSKESVRND [T39P] | -0.327
YKPCFVCQDKSSGYHYGVIACEGCKGFFRRSIQKNMIYTCHRDKNCVINKVTRNRCQYCRLQKCFEVGMSKESVRND [S19I] | 0.066
YKPCFVCQDKSSGYHYGVSACEGCKGFFRRSIQKNMIYTCHRDKNCVINKVTRQRCQYCRLQKCFEVGMSKESVRND [N54Q] | 0.183
YKPCFVCQDKSSGYHYGVSACEGCKGFFRRSIQKNMIYFCHRDKNCVINKVTRNRCQYCRLQKCFEVGMSKESVRND [T39F] | 0.105
YKPCFVCQDKSSGYHYGVSACEGCKGFFRRSIQKNMIYTCHRDKNCVINKVTENRCQYCRLQKCFEVGMSKESVRND [R53E] | 0.102
YKPCFVCQDKSVGYHYGVSACEGCKGFFRRSIQKNMIYTCHRDKNCVINKVTRNRCQYCRLQKCFEVGMSKESVRND [S12V] | 0.011
YKPCFVAQDKSSGYHYGVSACEGCKGFFRRSIQKNMIYTCHRDKNCVINKVTRNRCQYCRLQKCFEVGMSKESVRND [C7A] | -0.991
YKPCFVCQDKSSGYHYGVSACEGCKGFFRRSIQYNMIYTCHRDKNCVINKVTRNRCQYCRLQKCFEVGMSKESVRND [K34Y] | -0.007
YKPCFVCQDKSSGYHYGVFACEGCKGFFRRSIQKNMIYTCHRDKNCVINKVTRNRCQYCRLQKCFEVGMSKESVRND [S19F] | -0.09
TKPCFVCQDKSSGYHYGVSACEGCKGFFRRSIQKNMIYTCHRDKNCVINKVTRNRCQYCRLQKCFEVGMSKESVRND [Y1T] | -0.109
YKPCFVCQDKSSGYHYGVSACEGCKGFFRRSIQKNMIYTCHRDKNCVINKVTRNRCQYCRFQKCFEVGMSKESVRND [L61F] | -0.13
YKPCFVCQDKSSGYHYGVSSCEGCKGFFRRSIQKNMIYTCHRDKNCVINKVTRNRCQYCRLQKCFEVGMSKESVRND [A20S] | -0.07
YKPCFVCQDKSSGYHYGVSACEGCKGFFRRSIQKNMIYTCHKDKNCVINKVTRNRCQYCRLQKCFEVGMSKESVRND [R42K] | 0.067
YKPCFVCQDKSSGYHYGVSACEGCKGFFRRSIQKNMIYTCHRDKNCVISKVTRNRCQYCRLQKCFEVGMSKESVRND [N49S] | -0.116
YKPCFVCQDKSSGYHYGVSACEGCKGFFRRSIQKNMIYTCHRDHNCVINKVTRNRCQYCRLQKCFEVGMSKESVRND [K44H] | -0.322
YKPCFVCQDKSSGYHYGVSACEGCKGFFRRSIQKNMIYTCHRDKNCCINKVTRNRCQYCRLQKCFEVGMSKESVRND [V47C] | 0.003
YKPCFVCQDKSSGYHYGVSACEGCKGFFRRSIQKNMIYTCHRDKNCVINKVTRNRCQYCRLEKCFEVGMSKESVRND [Q62E] | 0.017
YKPMFVCQDKSSGYHYGVSACEGCKGFFRRSIQKNMIYTCHRDKNCVINKVTRNRCQYCRLQKCFEVGMSKESVRND [C4M] | -0.754

Data credit: the Human Domainome abundance scans (Beltran et al. 2025)
